- target-or-system: Thromboxane-A synthase (Homo sapiens)
- Sequence (P24557 whole entry): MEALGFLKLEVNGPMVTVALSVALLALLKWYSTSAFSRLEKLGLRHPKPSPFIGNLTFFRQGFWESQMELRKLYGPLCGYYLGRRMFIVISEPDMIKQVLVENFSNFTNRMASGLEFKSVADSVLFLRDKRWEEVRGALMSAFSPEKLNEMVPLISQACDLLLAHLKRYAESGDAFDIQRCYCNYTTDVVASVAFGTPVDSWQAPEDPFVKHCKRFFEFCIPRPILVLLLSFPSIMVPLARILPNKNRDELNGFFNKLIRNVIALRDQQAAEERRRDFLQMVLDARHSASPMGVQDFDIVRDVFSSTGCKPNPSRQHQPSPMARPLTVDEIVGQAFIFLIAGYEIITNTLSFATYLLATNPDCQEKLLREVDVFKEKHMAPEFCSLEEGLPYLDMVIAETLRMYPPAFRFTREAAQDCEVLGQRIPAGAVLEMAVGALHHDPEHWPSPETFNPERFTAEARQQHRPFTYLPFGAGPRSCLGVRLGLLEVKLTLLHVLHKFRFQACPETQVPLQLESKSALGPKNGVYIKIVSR
- test: Inhibition of thromboxane synthetase in intact human platelet microsomes assessed as inhibition of [1-14C]PGH2 to [1-14C]TxA2
attribute-measured: IC50 (nM)
The response must be a number in nM with no trailing unit.

For the record CCCCCC(O)CO[C@@H]1[C@@H](CCCCCCC(=O)O)[C@@H]2C[C@@H]1N=N2 (mixture of isomers) , what value of IC50 is listed for Thromboxane-A synthase (Homo sapiens)? 1000

====

- Tested on: Platelet
- test: Inhibition of 8.2 x 10^-4 M arachidonic acid-induced platelet aggregation in human platelet rich plasma at 10^-4 M incubated for 1.5 mins at 37.5 degC
- Format: functional
For each record, write down the corresponding inhibition (INH).
Dear colleague, please return just the value in %, with no unit written.

Give the reported inhibition (INH) for CCCCCC(O)CO[C@@H]1[C@@H](CCCCCCC(=O)O)[C@@H]2C[C@@H]1N=N2 (mixture of isomers) (system: Platelet). 100

And then C=CCO[C@@H]1[C@@H](CCCCCCC(=O)O)[C@@H]2C[C@@H]1N=N2 (racemic) , what is it? 0

Also check C=CCO[C@@H]1[C@@H](CCCCCCC(=O)O)[C@@H]2C[C@@H]1N(C(=O)OCC)N2C(=O)OCC (racemic) 0

Check CCOC(=O)N1[C@H]2C[C@@H]([C@H](CCCCCCC(=O)O)[C@H]2O)N1C(=O)OCC (racemic) too. 0

Same for CCCCCC(O)CO[C@@H]1[C@@H](CCCCCCC(=O)O)[C@@H]2C[C@@H]1N(C(=O)OCC)N2C(=O)OCC (mixture of isomers) 0
